B1: HDV Ribozyme (parent)
chain: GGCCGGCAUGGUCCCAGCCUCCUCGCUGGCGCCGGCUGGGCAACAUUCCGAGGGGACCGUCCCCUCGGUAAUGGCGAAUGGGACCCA

variants of: B1; experiment: self-cleavage, relative activity (ratio to wild type); higher = more cleavage; co-transcriptional
Consider the following variants; for each one, report its self-cleavage.
API note: the answer field is a bare number with no unit suffix.

Per the record, A16G A43G has self-cleavage of 0.266

Per the record, G5U G6U has self-cleavage of 0

Per the record, G28C C32U has self-cleavage of 0.19

Per the record, G5C G82A has self-cleavage of 0.123

Per the record, A43C A70C has self-cleavage of 0.35

Per the record, C15U C62G has self-cleavage of 0.851

Per the record, C15U C33U has self-cleavage of 0.708

Per the record, C24A C57G has self-cleavage of 0.869

Per the record, G38A A77U has self-cleavage of 0.0845

Per the record, C30A A71U has self-cleavage of 0.386

Per the record, C15A G28U has self-cleavage of 0.0615

Per the record, C15G A42U has self-cleavage of 0.0504

Per the record, U72A C86U has self-cleavage of 0.957

Per the record, U27G C66G has self-cleavage of 0.629

Per the record, C32G A43G has self-cleavage of 0.0489

Per the record, U20G C66A has self-cleavage of 0.249

Per the record, G2C A78C has self-cleavage of 0

Per the record, U27C C36A has self-cleavage of 0.142

Per the record, U12G A45U has self-cleavage of 0.684

Per the record, C48U C58G has self-cleavage of 1.06

Per the record, G25U A51U has self-cleavage of 0.237

Per the record, C66A C75A has self-cleavage of 0.248

Per the record, G67C A71G has self-cleavage of 0.743

Per the record, C62A U65A has self-cleavage of 0.332

Per the record, C41A G55A has self-cleavage of 0.937

Per the record, U46C G52A has self-cleavage of 1.03

Per the record, C30G U46G has self-cleavage of 0.0361

Per the record, C30G G81C has self-cleavage of 0.032

Per the record, A56U U65C has self-cleavage of 1.04

Per the record, G2A G5U has self-cleavage of 0.0453

Per the record, U46A G81U has self-cleavage of 0.271

Per the record, G38U A45C has self-cleavage of 0.181

Per the record, C48U G68U has self-cleavage of 0.893

Per the record, G25U G82U has self-cleavage of 0.0252

Per the record, A43C C57A has self-cleavage of 0.785

Per the record, G53C A56U has self-cleavage of 1.11

Per the record, C30A A56C has self-cleavage of 0.875

Per the record, C13A C49U has self-cleavage of 0.119

Per the record, A71G G81U has self-cleavage of 0.291

Per the record, G34C U46G has self-cleavage of 0.0504

Per the record, G5A G59A has self-cleavage of 0.407

Per the record, U47G A71U has self-cleavage of 1.18

Per the record, C18U C33G has self-cleavage of 0.252

Per the record, A8U G34A has self-cleavage of 0.242

Per the record, C3G A8C has self-cleavage of 0.293

Per the record, C13U C30G has self-cleavage of 0.198

Per the record, G28C C66U has self-cleavage of 0

Per the record, C3U A45U has self-cleavage of 0.432

Per the record, C26U U46C has self-cleavage of 0.897

Per the record, C13U A43C has self-cleavage of 0.0791

Per the record, C61A U72G has self-cleavage of 0.554

Per the record, C15U G67U has self-cleavage of 0.972

Per the record, A45G G74C has self-cleavage of 0.332

Per the record, C26A U69A has self-cleavage of 0.985

Per the record, U60G A77G has self-cleavage of 1.09

Per the record, G5A A77U has self-cleavage of 0

Per the record, C62U G82A has self-cleavage of 0.338

Per the record, U20G G52U has self-cleavage of 0.332

Per the record, G59A U69G has self-cleavage of 1

Per the record, C41U U65C has self-cleavage of 0.954

Per the record, U46C C61A has self-cleavage of 1.09

Per the record, C49A C62U has self-cleavage of 0.933

Per the record, U12C A43C has self-cleavage of 0.0831

Per the record, A8C G25U has self-cleavage of 0.138

Per the record, C48A A71U has self-cleavage of 0.867

Per the record, G11U U20A has self-cleavage of 0.0252

Per the record, C18A A77U has self-cleavage of 0

Per the record, C41G G55C has self-cleavage of 0.723

Per the record, G10C C30U has self-cleavage of 0.208

Per the record, U37A C86A has self-cleavage of 0.256

Per the record, G2A G59A has self-cleavage of 0.208

Per the record, U47G A83C has self-cleavage of 0.434

Per the record, G31C G76U has self-cleavage of 0.463

Per the record, G17C G76C has self-cleavage of 0.499

Per the record, C3A U72C has self-cleavage of 0.198

Per the record, G34C A78C has self-cleavage of 0.0898

Per the record, C33U G82A has self-cleavage of 0.302

Per the record, U12A U47A has self-cleavage of 0.302

Per the record, G11C G54U has self-cleavage of 0.289

Per the record, G54U C86A has self-cleavage of 0.799

Per the record, G2U C4A has self-cleavage of 0

Per the record, U47G G59U has self-cleavage of 1.12

Per the record, G39C G76A has self-cleavage of 0.289

Per the record, C3U C33G has self-cleavage of 0.0282

Per the record, C7U G81U has self-cleavage of 0.187

Per the record, G17U C30U has self-cleavage of 0.716

Per the record, G1A U9C has self-cleavage of 0.369

Per the record, G39A A45U has self-cleavage of 0.389

Per the record, G28C C62G has self-cleavage of 0.0536

Per the record, A16U G25C has self-cleavage of 0.32

Per the record, A56C A71U has self-cleavage of 1.11

src = the RNAGym collection of RNA variant scans (doi:10.7554/elife.80360)
